Let's look at some binders and their measured cAMP EC50.
# target.desc: human MC4R receptor (human, UniProt P32245 1-332)
# Sequence (P32245 whole entry): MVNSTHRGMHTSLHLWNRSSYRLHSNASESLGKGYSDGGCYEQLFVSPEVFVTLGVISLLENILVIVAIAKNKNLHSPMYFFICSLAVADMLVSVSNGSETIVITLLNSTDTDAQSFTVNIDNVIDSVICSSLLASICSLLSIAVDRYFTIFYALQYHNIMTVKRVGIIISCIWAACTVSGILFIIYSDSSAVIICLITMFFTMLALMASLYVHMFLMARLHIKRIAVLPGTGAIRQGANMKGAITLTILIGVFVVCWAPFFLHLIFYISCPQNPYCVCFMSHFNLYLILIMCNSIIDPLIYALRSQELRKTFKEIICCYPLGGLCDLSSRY
# experimental.protocol: cell-based or functional assay
Starred links: 1 amine or outer side, 2 acyl side, 3 side chain; linkers in the order of their positions; H or OH if unused. Positions of bridges follow the written chain, without caps; N, C: chain ends. Non-standard residues stand in square brackets, D forms with d. Primed or numbered codes have the meaning given here. dTyr(4-OMe) = O-methyl-D-tyrosine (4-OMe), COc1ccc(C[C@@H](N[*:1])C(=O)[*:2])cc1; dTyr(4-OMe)″ = O-methyl-D-tyrosine, COc1ccc(C[C@@H](N[*:1])C(=O)[*:2])cc1; dDip = N[C@@H](C(=O)O)C(c1ccccc1)c1ccccc1; Phe(4-Br) = N[C@@H](Cc1ccc(Br)cc1)C(=O)O; dPhe(4-Br) = N[C@H](Cc1ccc(Br)cc1)C(=O)O; dPhe(4-F) = N[C@H](Cc1ccc(F)cc1)C(=O)O; d(αMeF) = C[C@@](N)(Cc1ccccc1)C(=O)O; dNMeF = CN[C@H](Cc1ccccc1)C(=O)O; Nle = CCCC[C@H](N)C(=O)O
Quick reminder: number only, in nM, skip the unit.

Known results for binders:
binder | cAMP EC50 (nM)
Ac-RC[dA]R[dPhe(4-Br)]R[dW]CKP-NH2 (disulfide 2-8; SMILES CC(=O)N[C@@H](CCCNC(=N)N)C(=O)N[C@H]1CSSC[C@@H](C(=O)N[C@@H](CCCCN)C(=O)N2CCC[C@H]2C(N)=O)NC(=O)[C@@H](Cc2c[nH]c3ccccc23)NC(=O)[C@H](CCCNC(=N)N)NC(=O)[C@@H](Cc2ccc(Br)cc2)NC(=O)[C@H](CCCNC(=N)N)NC(=O)[C@@H](C)NC1=O) [CTX-1217] | 1.5
Ac-R[Nle]CR[dTyr(4-OMe)″]RWC-NH2 (disulfide 3-8; SMILES CCCC[C@H](NC(=O)[C@H](CCCNC(=N)N)NC(C)=O)C(=O)N[C@H]1CSSC[C@@H](C(N)=O)NC(=O)[C@H](Cc2c[nH]c3ccccc23)NC(=O)[C@H](CCCNC(=N)N)NC(=O)[C@@H](Cc2ccc(OC)cc2)NC(=O)[C@H](CCCNC(=N)N)NC1=O) [CTX-1614] | 1.7
Ac-RC[dA]R[dPhe(4-F)]R[dW]C-NH2 (disulfide 2-8) [CTX-1236] | 1.9
Ac-RC[dA]R[d(αMeF)]R[dW]C-NH2 (disulfide 2-8; SMILES CC(=O)N[C@@H](CCCNC(=N)N)C(=O)N[C@H]1CSSC[C@@H](C(N)=O)NC(=O)[C@@H](Cc2c[nH]c3ccccc23)NC(=O)[C@H](CCCNC(=N)N)NC(=O)[C@@](C)(Cc2ccccc2)NC(=O)[C@H](CCCNC(=N)N)NC(=O)[C@@H](C)NC1=O) [CTX-1240] | 76
Ac-R[Nle]CH[dPhe(4-Br)]R[dW]C-NH2 (disulfide 3-8; SMILES CCCC[C@H](NC(=O)[C@H](CCCNC(=N)N)NC(C)=O)C(=O)N[C@H]1CSSC[C@@H](C(N)=O)NC(=O)[C@@H](Cc2c[nH]c3ccccc23)NC(=O)[C@H](CCCNC(=N)N)NC(=O)[C@@H](Cc2ccc(Br)cc2)NC(=O)[C@H](Cc2c[nH]cn2)NC1=O) [CTX-1231] | 2.3
Ac-RC[dA]R[dPhe(4-Br)]R[dW]CRF-NH2 (disulfide 2-8; SMILES CC(=O)N[C@@H](CCCNC(=N)N)C(=O)N[C@H]1CSSC[C@@H](C(=O)N[C@@H](CCCNC(=N)N)C(=O)N[C@@H](Cc2ccccc2)C(N)=O)NC(=O)[C@@H](Cc2c[nH]c3ccccc23)NC(=O)[C@H](CCCNC(=N)N)NC(=O)[C@@H](Cc2ccc(Br)cc2)NC(=O)[C@H](CCCNC(=N)N)NC(=O)[C@@H](C)NC1=O) [CTX-1220] | 1.87
Ac-RC[dA]P[dPhe(4-Br)]R[dW]C-NH2 (disulfide 2-8; SMILES CC(=O)N[C@@H](CCCNC(=N)N)C(=O)N[C@H]1CSSC[C@@H](C(N)=O)NC(=O)[C@@H](Cc2c[nH]c3ccccc23)NC(=O)[C@H](CCCNC(=N)N)NC(=O)[C@@H](Cc2ccc(Br)cc2)NC(=O)[C@@H]2CCCN2C(=O)[C@@H](C)NC1=O) [CTX-1249] | 14
Ac-RC[dA]R[dDip]R[dW]C-NH2 (disulfide 2-8) [CTX-1280] | 438

Which cAMP EC50 reading was recorded for the binder Ac-RC[dA]R[dPhe(4-Br)]R[dF]C-NH2 (disulfide 2-8; SMILES CC(=O)N[C@@H](CCCNC(=N)N)C(=O)N[C@H]1CSSC[C@@H](C(N)=O)NC(=O)[C@@H](Cc2ccccc2)NC(=O)[C@H](CCCNC(=N)N)NC(=O)[C@@H](Cc2ccc(Br)cc2)NC(=O)[C@H](CCCNC(=N)N)NC(=O)[C@@H](C)NC1=O) [CTX-1255] ?
31

Would you mind telling me what cAMP EC50 value was observed for Ac-RC[dA]R[dPhe(4-Br)]R[dW]CRFG-OH (disulfide 2-8; SMILES CC(=O)N[C@@H](CCCNC(=N)N)C(=O)N[C@H]1CSSC[C@@H](C(=O)N[C@@H](CCCNC(=N)N)C(=O)N[C@@H](Cc2ccccc2)C(=O)NCC(=O)O)NC(=O)[C@@H](Cc2c[nH]c3ccccc23)NC(=O)[C@H](CCCNC(=N)N)NC(=O)[C@@H](Cc2ccc(Br)cc2)NC(=O)[C@H](CCCNC(=N)N)NC(=O)[C@@H](C)NC1=O) [CTX-1219] ?
2.3

Fill in the blank: the reported cAMP EC50 of Ac-CGR[dTyr(4-OMe)]RFC-NH2 (disulfide 1-7; SMILES COc1ccc(C[C@H]2NC(=O)[C@H](CCCNC(=N)N)NC(=O)CNC(=O)[C@@H](NC(C)=O)CSSC[C@@H](C(N)=O)NC(=O)[C@H](Cc3ccccc3)NC(=O)[C@H](CCCNC(=N)N)NC2=O)cc1) [CTX-1641] is ____.
44

Could you tell me which cAMP EC50 is on file for Ac-RC[dA]R[Phe(4-Br)]RWC-NH2 (disulfide 2-8) [CTX-1212] ?
393

What value of cAMP EC50 has been reported for the following binder? Ac-RC[dA]R[dNMeF]R[dW]C-NH2 (disulfide 2-8; SMILES CC(=O)N[C@@H](CCCNC(=N)N)C(=O)N[C@H]1CSSC[C@@H](C(N)=O)NC(=O)[C@@H](Cc2c[nH]c3ccccc23)NC(=O)[C@H](CCCNC(=N)N)NC(=O)[C@@H](Cc2ccccc2)N(C)C(=O)[C@H](CCCNC(=N)N)NC(=O)[C@@H](C)NC1=O) [CTX-1272]
750
